Measurement target: BLM642-1290 Q975V (UniProt P54132 642-1290, Q975V)
Sequence (P54132 642-1290 Q975V): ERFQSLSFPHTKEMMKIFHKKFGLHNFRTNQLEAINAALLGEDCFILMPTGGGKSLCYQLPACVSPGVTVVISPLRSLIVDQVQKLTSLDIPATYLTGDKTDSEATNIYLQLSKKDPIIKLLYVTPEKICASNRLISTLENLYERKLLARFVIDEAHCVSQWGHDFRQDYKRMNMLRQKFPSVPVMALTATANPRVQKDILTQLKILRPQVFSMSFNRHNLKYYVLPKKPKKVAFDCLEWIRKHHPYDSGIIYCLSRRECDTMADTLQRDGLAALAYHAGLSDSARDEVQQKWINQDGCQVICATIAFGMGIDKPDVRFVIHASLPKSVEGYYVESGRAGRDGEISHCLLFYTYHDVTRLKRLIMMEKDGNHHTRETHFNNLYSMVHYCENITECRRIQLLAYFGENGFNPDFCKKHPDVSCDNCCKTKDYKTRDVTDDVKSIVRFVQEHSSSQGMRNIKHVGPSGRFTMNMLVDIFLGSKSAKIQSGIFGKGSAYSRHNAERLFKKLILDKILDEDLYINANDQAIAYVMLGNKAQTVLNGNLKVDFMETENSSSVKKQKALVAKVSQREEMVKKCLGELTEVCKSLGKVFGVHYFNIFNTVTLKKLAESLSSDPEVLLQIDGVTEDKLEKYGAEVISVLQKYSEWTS
Assay notes: fluorescence anisotropy
Property measured: pKd
pKd here: minus log base 10 of the concentration, concentration in moles per litre.

I am curious: what pKd value has been reported for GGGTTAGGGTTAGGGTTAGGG (ssDNA) [oligonucleotide D (21-mer)] ?
8.48
